target: ERO1-like protein alpha (Homo sapiens, UniProt Q96HE7, C104A/C131A/C166A); assay: Inhibition of recombinant human Ero1Lalpha C104A/C131A/C166A triple mutant (22 to 468 residues) expressed in Escherichia coli BL21(DE3)-RIL using human PDI as substrate measured after 30 mins by Amplex red dye based fluorescence assay
QUANTITY KIND: IC50 (µM)
Give the quantity in µM, number only.

Qu. # returns recorded IC50 (system: ERO1-like protein alpha (Homo sapiens, UniProt Q96HE7, C104A/C131A/C166A)) for O=C(O)c1cc(N2N=C(C(F)(F)F)/C(=C/c3ccc(-c4ccccc4)o3)C2=O)ccc1Cl
Ans. 22.1

Entry source: ChEMBL document CHEMBL4316617
